assay: solubility of aclarubicin or its hydrochloride in solvents and in fats and oils; type: physicochemical; settings: olive oil, organic solvent or mixture, olive oil; aclarubicin hydrochloride; read-out: solubility in olive oil
Where a name gives a salt, the structure may show the parent alone.
quantity_kind: solubility

Prompt: Report solubility for CC[C@@]1(O)C[C@H](O[C@H]2C[C@H](N(C)C)[C@H](O[C@H]3C[C@H](O)[C@H](O[C@H]4CCC(=O)[C@H](C)O4)[C@H](C)O3)[C@H](C)O2)c2c(cc3c(c2O)C(=O)c2c(O)cccc2C3=O)[C@H]1C(=O)OC [Aclarubicin hydrochloride] please.
Completion: ~4 µg/mL

----------
assay: solubility of aclarubicin or its hydrochloride in solvents and in fats and oils; type: physicochemical; conditions: olive oil, organic solvent or mixture, olive oil; aclarubicin; read-out: solubility in olive oil
quantity_kind: solubility (µg/mL)
Numeric only. Scale: µg/mL

Prompt: Report solubility for CC[C@@]1(O)C[C@H](O[C@H]2C[C@H](N(C)C)[C@H](O[C@H]3C[C@H](O)[C@H](O[C@H]4CCC(=O)[C@H](C)O4)[C@H](C)O3)[C@H](C)O2)c2c(cc3c(c2O)C(=O)c2c(O)cccc2C3=O)[C@H]1C(=O)OC [Aclarubicin] please.
Completion: 10000

Ref: patent US4772590A
